test-description: Cytotoxicity (MTS assay or GAPDH RNA readout)
Format: cell-based
recorded-conditions: human, replicon-containing Huh 7 cells, 3-day incubation, MTS or GAPDH RNA readout; read-out: 1b CC50
readout-kind: CC50 at 3 day

Would you please look over these solved cases?
CCOC(=O)[C@H](C)NP(=O)(Oc1ccccc1)O[C@@H](C)[C@H]1O[C@@H](n2ccc3c(N)ncnc32)[C@](C)(O)[C@@H]1O (stereo partly drawn) : > 100 µM
CCOC(=O)[C@H](C)NP(=O)(Oc1ccc(Cl)cc1)OC(C)[C@H]1O[C@@H](n2ccc3c(N)ncnc32)[C@](C)(F)[C@@H]1O (stereo partly drawn) : > 100 µM
CC(C)OC(=O)[C@H](C)NP(=O)(Oc1ccccc1Cl)OC(C)[C@H]1O[C@@H](n2ccc3c(N)ncnc32)[C@](C)(F)[C@@H]1O (stereo partly drawn) : > 100 µM
CC[C@@H](OP(=O)(N[C@@H](C)C(=O)OC)Oc1ccccc1)[C@H]1O[C@@H](n2cc(F)c3c(N)ncnc32)[C@](C)(O)[C@@H]1O (stereo partly drawn) : 20 µM
CC(C)OC(=O)[C@H](C)NP(=O)(Oc1ccc(Cl)cc1)OC(C)[C@H]1O[C@@H](n2ccc3c(N)ncnc32)[C@](C)(F)[C@@H]1O (stereo partly drawn) : > 100 µM
COC(=O)[C@H](C)NP(=O)(Oc1cccc2ccccc12)OC(C)[C@H]1O[C@@H](n2ccc3c(N)ncnc32)[C@](C)(O)[C@@H]1O (stereo partly drawn) : > 100 µM

Would you be so kind as to report CC50 at 3 day for each listed record?
1. CC(C)OC(=O)[C@H](C)NP(=O)(Oc1cccc2ccccc12)OC(C)(C)[C@H]1O[C@@H](n2ccc3c(N)ncnc32)[C@](C)(F)[C@@H]1O (stereo partly drawn)
2. CC(O)[C@H]1O[C@@H](n2ccc3c(N)ncnc32)[C@](C)(F)[C@@H]1O (stereo partly drawn)
3. CC(C)OC(=O)[C@H](C)NP(=O)(Oc1ccccc1)OC(C)[C@H]1O[C@@H](n2ccc3c(N)ncnc32)[C@](C)(F)[C@@H]1O (stereo partly drawn)
4. COC(=O)[C@H](C)NP(=O)(Oc1ccccc1)O[C@@H](C)[C@H]1O[C@@H](n2ccc3c(N)ncnc32)[C@](C)(O)[C@@H]1O (stereo partly drawn)
5. COC(=O)[C@H](C)NP(=O)(Oc1ccccc1)OC(C)[C@H]1O[C@@H](n2ccc3c(N)ncnc32)[C@](C)(O)[C@@H]1O (stereo partly drawn)
6. CC(C)OC(=O)[C@H](C)NP(=O)(Oc1cccc2ccccc12)OC(C)[C@H]1O[C@@H](n2ccc3c(N)ncnc32)[C@](C)(F)[C@@H]1O (stereo partly drawn)

-- reply
1: > 20 µM; 2: > 100 µM; 3: > 100 µM; 4: > 100 µM; 5: > 100 µM; 6: > 20 µM
